This section presents compounds with their documented residual activity values.
# experimental-target: Tyrosine-protein kinase receptor UFO (Homo sapiens)
# measurement-context: at 10 µM
Field: numeric (%). Do not append units.

compound	measurement-units	residual activity
O=C1NC(=O)c2cc(Nc3ccc(F)cc3)c(Nc3ccc(F)cc3)cc21	%	81
Cn1cc(/C=C2\C(=O)Nc3ccc(S(N)(=O)=O)cc32)c2ccccc21	%	27
CC[n+]1c(/C=C/N(C)c2ccccc2)n(-c2ccccc2)c2ccc(-c3nc4ccccc4s3)cc21	%	58
Cc1cc(Nc2nc(-c3ccccc3)nc3ccccc23)n[nH]1	%	3
NC(=O)c1ccc2[nH]c(-c3ccc(Oc4ccc(Cl)cc4)cc3)nc2c1	%	70
Cc1cncc2cccc(S(=O)(=O)N3CCCN(C(=O)CN)C[C@H]3C)c12	%	74

Result for `O=C1NC(=O)c2c1c1c3ccccc3[nH]c1c1[nH]c3cc(Br)ccc3c21` , tested on Tyrosine-protein kinase receptor UFO (Homo sapiens), residual activity: 80

Entry `Cc1cc2ncc(-c3ccccc3)nc2cc1C` ; assay system Tyrosine-protein kinase receptor UFO (Homo sapiens); residual activity recorded at 88

Observed residual activity on Tyrosine-protein kinase receptor UFO (Homo sapiens), entry `Cn1nc2c3c(cccc31)C(=O)c1ccccc1-2` , equals 63

Bench note, Tyrosine-protein kinase receptor UFO (Homo sapiens): entry `c1ccc(-c2n[nH]c3c2oc2ccccc23)cc1` , its residual activity = 73

Query O=C1Nc2ccccc2/C1=C1/Nc2ccccc2/C1=N\OCCC(O)CO (stereo not drawn) on Tyrosine-protein kinase receptor UFO (Homo sapiens); residual activity returned: 5

With Tyrosine-protein kinase receptor UFO (Homo sapiens) as the test system, `O=C(Nc1cccc(Nc2nccc(Nc3cccc(C(F)(F)F)c3)n2)c1)C1CC1` showed residual activity of 81

residual activity value, target or system Tyrosine-protein kinase receptor UFO (Homo sapiens), for `CCOc1cc2ncnc(Nc3cccc(Br)c3)c2cc1OCC` : 31

Tested on Tyrosine-protein kinase receptor UFO (Homo sapiens): `N#CCCc1ccc2c(c1)-c1[nH]c3ccc([N+](=O)[O-])cc3c1CC(=O)N2` . Observed residual activity: 35

Assay Tyrosine-protein kinase receptor UFO (Homo sapiens), sample `O=c1cc(-c2cccc3c2Sc2ccccc2S3)oc(N2CCOCC2)c1` , residual activity read: 86

Lab note: compound `Nc1nc(Nc2ccc(S(N)(=O)=O)cc2)nn1C(=S)Nc1c(F)cccc1F` tested on Tyrosine-protein kinase receptor UFO (Homo sapiens); recorded residual activity was 2

residual activity of `O=C(O)c1ccc2c3c1cccc3c(=O)n1c3ccccc3nc21` , assay on Tyrosine-protein kinase receptor UFO (Homo sapiens), is 35

The value of residual activity recorded for `COc1cc2ncnc(Nc3ccc(NC(=O)c4ccccc4)cc3)c2cc1OC` when tested on Tyrosine-protein kinase receptor UFO (Homo sapiens) reads 40

----------
Reported residual activity values follow for various molecules
# experimental-target: Casein kinase II subunit alpha' (Homo sapiens) (UniProt P19784)
# Sequence (P19784 whole entry, looked up): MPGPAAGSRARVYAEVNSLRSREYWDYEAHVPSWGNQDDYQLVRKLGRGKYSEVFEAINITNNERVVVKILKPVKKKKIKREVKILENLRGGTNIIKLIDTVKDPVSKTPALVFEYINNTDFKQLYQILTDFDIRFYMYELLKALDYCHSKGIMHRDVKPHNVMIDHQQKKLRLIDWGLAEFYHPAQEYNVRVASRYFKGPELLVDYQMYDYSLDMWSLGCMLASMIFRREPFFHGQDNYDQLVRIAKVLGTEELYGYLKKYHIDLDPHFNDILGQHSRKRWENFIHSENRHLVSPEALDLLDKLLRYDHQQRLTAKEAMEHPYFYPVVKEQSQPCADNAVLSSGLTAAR
# measurement-context: at 10 µM
Write down the numeric answer in % and omit the unit.

What the record says about `Cc1nc2cc3nc(-c4cccs4)cnc3cc2n1C` : residual activity is 92

Value of residual activity reported for the molecule `CO[C@@H]1[C@H](N(C)C(=O)c2ccccc2)C[C@H]2O[C@]1(C)n1c3ccccc3c3c4c(c5c6ccccc6n2c5c31)C(=O)NC4` is 102

Noted for `COc1ccc(S(=O)(=O)N(CCO)c2ccccc2CN(C)C/C=C/c2ccc(Cl)cc2)cc1` : its residual activity reads 95

For record `O=C1NC(=O)/C(=C\c2ccc3nccnc3c2)S1` the listed residual activity is -5

residual activity measured on `COc1cc2ncnc(Nc3ccc(Oc4ccccc4)cc3)c2cc1OC` = 108

For `CC#CC(=O)Nc1cc2c(Nc3ccc(F)c(Cl)c3)ncnc2cn1` the molecule record lists residual activity as 86

Notebook: `CNc1cc2c(Nc3cccc(Br)c3)ncnc2cn1` , residual activity read as 96

Measured residual activity, `c1ccc2c(-c3ccncc3)c[nH]c2c1` : 90

For this molecule ( `N#Cc1cnc2cnc(NCc3cccnc3)cc2c1Nc1ccc(F)c(Cl)c1` ), measured residual activity is 100

----------
# experimental-target: Tyrosine-protein kinase FRK (Homo sapiens) (UniProt P42685)
# Sequence (P42685 whole entry): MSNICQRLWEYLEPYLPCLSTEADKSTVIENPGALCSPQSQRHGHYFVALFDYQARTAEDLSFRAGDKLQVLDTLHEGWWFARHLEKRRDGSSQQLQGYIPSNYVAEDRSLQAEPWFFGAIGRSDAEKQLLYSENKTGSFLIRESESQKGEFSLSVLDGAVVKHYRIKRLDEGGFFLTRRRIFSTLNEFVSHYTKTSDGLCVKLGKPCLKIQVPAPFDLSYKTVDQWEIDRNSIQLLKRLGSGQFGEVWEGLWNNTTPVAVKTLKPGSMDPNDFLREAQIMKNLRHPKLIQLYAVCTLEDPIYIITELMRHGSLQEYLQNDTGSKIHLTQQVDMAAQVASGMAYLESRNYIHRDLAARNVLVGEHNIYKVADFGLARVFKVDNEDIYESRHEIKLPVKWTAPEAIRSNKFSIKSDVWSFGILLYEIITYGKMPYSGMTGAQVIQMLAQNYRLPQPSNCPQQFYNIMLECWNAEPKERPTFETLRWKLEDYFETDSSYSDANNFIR
# measurement-context: at 10 µM
Rule: Fulfilled for residual activity not less than 40%, Not fulfilled for anything less.

Exam item: Dear colleague, could you confirm whether `COc1ccc(OC)c2c(=S)c3ccccc3[nH]c12` has residual activity at or above 40%?
Marked response: Fulfilled

Exam item: Entry `Nc1nc(Nc2ccc(S(N)(=O)=O)cc2)nn1C(=S)Nc1c(F)cccc1F` : is its residual activity no less than 40%?
Marked response: Not fulfilled

Exam item: Decide: is the reported value of residual activity for `Cc1nc(-c2ccccc2)c(-c2ccncc2)o1` equal to or greater than 40%?
Marked response: Not fulfilled

Exam item: API: above_or_equal(metric=residual activity, cutoff=40%) for item `CCOc1cc2ncnc(Nc3cccc(Br)c3)c2cc1OCC`
Marked response: Not fulfilled

Exam item: Reported residual activity reaches at least 40% for `O=C1c2ccccc2-[n+]2ccc3c([nH]c4ccccc43)c21` ?
Marked response: Fulfilled

----------
# experimental-target: Serine/threonine-protein kinase Sgk2 (Homo sapiens) (UniProt Q9HBY8)
# Sequence (whole entry): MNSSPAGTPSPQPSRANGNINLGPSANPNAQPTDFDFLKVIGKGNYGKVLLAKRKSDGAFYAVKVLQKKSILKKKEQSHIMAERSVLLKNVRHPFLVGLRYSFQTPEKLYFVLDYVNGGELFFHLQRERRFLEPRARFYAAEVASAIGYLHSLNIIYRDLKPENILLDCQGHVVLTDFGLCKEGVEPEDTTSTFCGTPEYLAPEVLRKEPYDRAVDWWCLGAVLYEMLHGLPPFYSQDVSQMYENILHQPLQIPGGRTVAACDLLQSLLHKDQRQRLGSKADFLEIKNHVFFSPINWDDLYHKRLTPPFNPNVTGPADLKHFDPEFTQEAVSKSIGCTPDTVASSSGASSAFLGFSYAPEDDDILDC
# measurement-context: at 10 µM
measure: residual activity (%)
Numbers only here, please. The scale is %.

smiles-code	reading
Nc1ccc2ncnc(NCCc3ccc(Oc4ccccc4)cc3)c2c1	74

The measured residual activity associated with `c1ccc2c(-c3ccncc3)c[nH]c2c1` reads 24

GET /value?item= `CC(C)n1cnc2/c(=N/c3cccc(Cl)c3)nc(NCCO)[nH]c21` &field=residual activity returns 83

Lab book: residual activity of `CO[C@@H]1[C@H](N(C)C(=O)c2ccccc2)C[C@H]2O[C@]1(C)n1c3ccccc3c3c4c(c5c6ccccc6n2c5c31)C(=O)NC4` noted as 46

----------
# experimental-target: Serine/threonine-protein kinase tousled-like 2 (Homo sapiens)
# measurement-context: at 1 µM
Quick list: residual activity per entry.
Just the number in %, nothing appended.

Reference set (2 entries):
smiles-code	experimental-target	reading
O=[N+]([O-])c1ccc(-c2nc(-c3ccc(F)cc3)c(-c3ccncc3)[nH]2)cc1	Serine/threonine-protein kinase tousled-like 2 (Homo sapiens)	107
CCOc1cc2ncnc(Nc3cccc(Br)c3)c2cc1OCC	Serine/threonine-protein kinase tousled-like 2 (Homo sapiens)	98

Then this compound:
The recorded residual activity for `COc1ccc(C(=O)Nc2sc3c(c2C(N)=O)CCCC3)cc1OC` is 95

----------
# experimental-target: Tyrosine-protein kinase Yes (Homo sapiens) (UniProt P07947)
# Sequence (P07947 2-543 limits assumed): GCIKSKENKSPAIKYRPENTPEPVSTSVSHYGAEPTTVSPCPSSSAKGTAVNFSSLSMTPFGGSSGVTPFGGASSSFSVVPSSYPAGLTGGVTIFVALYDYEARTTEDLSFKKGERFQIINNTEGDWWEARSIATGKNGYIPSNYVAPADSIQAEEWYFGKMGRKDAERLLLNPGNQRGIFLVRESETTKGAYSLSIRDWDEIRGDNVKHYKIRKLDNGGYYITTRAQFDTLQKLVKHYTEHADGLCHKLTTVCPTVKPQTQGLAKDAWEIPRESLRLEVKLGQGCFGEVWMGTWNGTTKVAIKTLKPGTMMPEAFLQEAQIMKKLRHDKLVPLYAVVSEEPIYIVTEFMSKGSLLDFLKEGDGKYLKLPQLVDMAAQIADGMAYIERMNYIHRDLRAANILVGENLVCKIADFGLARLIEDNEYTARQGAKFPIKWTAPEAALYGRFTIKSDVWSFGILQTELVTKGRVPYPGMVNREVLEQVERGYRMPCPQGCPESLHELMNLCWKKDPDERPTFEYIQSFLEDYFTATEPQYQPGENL
# measurement-context: at 10 µM
Response field label: string, one of 1.0 (residual activity strictly below 90%) or 0.0.

Example entries and their recorded answers appear below.
smiles-code	qualitative-label
Cn1nc2c3c(cccc31)C(=O)c1ccccc1-2	0.0
O=C1NC(=O)/C(=C/c2ccc3c(c2)OC(F)(F)O3)S1	0.0
O=C(Nc1cccc(Nc2cc(Nc3cccc(C(F)(F)F)c3)ncn2)c1)C1CC1	1.0
CC(=O)O/N=C1\C(=C2\C(=O)Nc3cc(Br)ccc32)Nc2ccccc21	1.0
CC(C)n1cnc2/c(=N/c3cccc(Cl)c3)nc(NCCO)[nH]c21	1.0
Cn1cnc2cc3c(Nc4cccc(Br)c4)ncnc3cc21	1.0
N#CC(C#N)=C(N)/C(C#N)=C/c1ccc(O)cc1	0.0
O=C(O)c1ccc2c3c1cccc3c(=O)n1c3ccccc3nc21	0.0

Exam item: Would you kindly verify if residual activity of `Cn1cc(/C=C2\C(=O)Nc3ccc(S(N)(=O)=O)cc32)c2ccccc21` is strictly less than 90%?
Marked response: 1.0

----------
# experimental-target: Tyrosine-protein kinase HCK (Homo sapiens)
# measurement-context: at 1 µM
Strictly below 70% in residual activity: YES. Otherwise: NO.

Look over these answered cases.
smiles-code	experimental-target	qualitative-label
COc1cccc(-c2cc(=O)c3ccccc3o2)c1N	Tyrosine-protein kinase HCK (Homo sapiens)	NO
O=C1Nc2cc(Br)ccc2/C1=C1/Nc2ccccc2/C1=N\O	Tyrosine-protein kinase HCK (Homo sapiens)	YES
COc1ccc(C(=O)Nc2sc3c(c2C(N)=O)CCCC3)cc1OC	Tyrosine-protein kinase HCK (Homo sapiens)	YES

Exam item: Lab note: confirm whether the reported residual activity for this molecule is below 70%, equality not counting. molecule: `O=c1c2ccccc2[nH]c(=S)n1CCN1CCC(=C(c2ccc(F)cc2)c2ccc(F)cc2)CC1`
Marked response: NO

These measurements were taken from ChEMBL document CHEMBL2218924.
